# Test system: UACC-62
# test_details: NCI tumour cell line growth inhibition, 48 h
Active and inactive are the calls of the source. Rule as the data show it: active = GI50 up to about 1.1 µM and inactive = higher.
A correct response names exactly one class from true = active, false = inactive

OCSc1nn(CO)c(=S)s1	false
COC(=O)NC1C(C)OC(OC2C/C=C(/C)C3C=CC4C(OC5CC(OC6CC(O)C(OC7CC(O)C(OC)C(C)O7)C(C)O6)C(O)C(C)O5)C(C)CC(C)C4C3(C)C(=O)C3=C(O)C4(CC(C)C(CO)=CC4/C=C\2C)OC3=O)CC1(C)[N+](=O)[O-] (centres undefined)	false
O=C(CC(=O)N1N=C(N(c2ccccc2)c2ccccc2)CC1c1ccccc1)Nc1ccc(Cl)cc1 (centres undefined)	false
O=C1C(Br)=Cc2c(Cl)sc(Cl)c21	false
NS(=O)(=O)c1ccc(C(=O)O)cc1 [CARZENIDE]	false

Recorded call for COC(=O)Cc1cc2c(cc1C(=O)c1ccc(N)cc1)OCO2 ?
true

Recorded test outcome, item O=C1/C(=C/c2ccccc2)CNC/C1=C\c1ccccc1
false

# outcome recorded in this test, key = Cc1ccc(C2CC(=O)CC(c3ccc(C)cc3)C23C(=O)NC(=O)NC3=O)cc1 (centres undefined)
false

Entry CCOc1ccc(/N=N/C2C(=O)N(C(=O)CC(=O)Nc3ccccc3OC)N=C2C)cc1 (centres undefined) : call = ?
false

This collection of values is drawn from ChEMBL document CHEMBL1201862.
